Readings of IC90 for the listed molecules
System: Acinetobacter baumannii ATCC 17978
Assay: Antimicrobial susceptibility testing: 90% growth inhibitory concentration (IC90) determination
Assay type: cell-based
Conditions: Acinetobacter baumannii, ATCC17978, 16 h, 90% growth inhibitory concentration; Acinetobacter baumannii ATCC17978; Iso-Sensitest broth, OD 600 nm over 16h; read-out: ATCC17978 IC90
Structures can show the parent of a compound that is named as a salt.
Please format your answer as a value with the unit trailing.

Examples with answers:
Exam item: Indicate the recorded IC90 value for this molecule: CCc1cc(Nc2nccn3c(-c4ccc(OC)c(F)c4F)cnc23)ccc1C(=O)NCC[C@@H](C)NC(=O)[C@@H](N)CCCNC(=N)N [Example 340, hydrochloride]
Marked response: 590 nM

Exam item: Indicate the recorded IC90 value for this molecule: CCc1cc(Nc2nccn3c(-c4ccc(OC)c(F)c4F)cnc23)ccc1C(=O)N[C@@H](C)CNC(C)=N
Marked response: 270 nM

Exam item: Indicate the recorded IC90 value for this molecule: COc1ccc(-c2cnc3c(Nc4ccc(C(=O)N(C)C)c(C)c4)nccn23)cc1
Marked response: 240 nM

Further cases:
Exam item: Indicate the recorded IC90 value for this molecule: Cc1cc(Nc2nccn3c(-c4ccc(OC(F)F)cc4)cnc23)ccc1C(=O)N(C)CCN1CCOCC1
Marked response: 1200 nM
